Tested on: HepG2
assay_text: cytotoxicity call (relative viability < 0.9)
stated_conditions: 10 µM
About 3,300 (8.5%) of roughly 39,000 compounds were called active. Many of the other results were omitted from the sample, so actives are more common in it than they were.
// one of T for active, F for inactive, no free text

For orientation, consider the following solved cases.
[[record]]
molecule = "Cc1ccc(S(=O)(=O)Nc2ccc3c(c2)CC(=O)N([C@@H](C)CO)C[C@H](C)[C@H](CN(C)Cc2ccc(-c4ccccc4)cc2)O3)cc1"
group_label = "F"

[[record]]
molecule = "CC1(O)CCC(C(C)(C)O)CC1.O (stereo not given)"
group_label = "F"

[[record]]
molecule = "C[C@@H]1CCCCO[C@@H](CN(C)S(=O)(=O)c2ccc(Cl)cc2)[C@@H](C)CN([C@@H](C)CO)C(=O)c2cc(NC(=O)NC3CCCCC3)ccc2O1"
group_label = "T"


Hi team, can someone confirm the assay call for `O=C1CN(c2ccccc2)C(=O)N1` ?
F

Another molecule to look at: `C[C@@H]1CCCCO[C@H](CN(C)S(=O)(=O)c2ccc(Cl)cc2)[C@H](C)CN([C@@H](C)CO)C(=O)c2cc(NC(=O)NC3CCCCC3)ccc2O1`
F

Another molecule to look at: `C=CC[C@@H](CC(=O)N[C@@H](CO)Cc1ccccc1)C(=O)NCCOC(=O)[C@H](CC=C)CC(=O)OC(C)(C)C`
F

Another molecule to look at: `Cc1noc(C)c1NC(=O)N(C)C[C@H]1OCCCC[C@H](C)Oc2ccc(NC(=O)CCC(F)(F)F)cc2C(=O)N([C@@H](C)CO)C[C@H]1C`
F

Another molecule to look at: `NC(=O)c1cc(S(=O)(=O)N2CCOCC2)ccc1F`
T

Another molecule to look at: `CCCN(C)C[C@@H]1OCCCC[C@@H](C)Oc2ccc(NS(=O)(=O)c3cn(C)cn3)cc2C(=O)N([C@H](C)CO)C[C@@H]1C`
F

Another molecule to look at: `O=C(C[C@H]1C[C@H]2c3cc(NC(=O)Cc4ccncc4)ccc3O[C@H]2[C@@H](CO)O1)NCc1ccc2c(c1)OCO2`
F

Another molecule to look at: `CO[C@H]1CN(C)C(=O)c2cc(NC(=O)CC(F)(F)F)ccc2OC[C@H](C)N(C(=O)C2CCOCC2)C[C@@H]1C`
F

Another molecule to look at: `Cc1ccc(S(=O)(=O)Nc2ccc3c(c2)CC(=O)N([C@@H](C)CO)C[C@@H](C)[C@@H](CN(C)Cc2ccc(-c4ccccc4)cc2)O3)cc1`
T

Another molecule to look at: `Cc1ccc(S(=O)(=O)Nc2ccc3c(c2)CC(=O)N([C@@H](C)CO)C[C@H](C)[C@@H](CN(C)Cc2ccc(-c4ccccc4)cc2)O3)cc1`
F

Another molecule to look at: `C[C@H](CO)N1C[C@H](C)[C@H](CN(C)S(=O)(=O)c2ccc(F)cc2)Oc2ccc(NC(=O)c3ccncc3)cc2C1=O`
F

Another molecule to look at: `C[C@@H]1CN([C@@H](C)CO)C(=O)c2cccc(NS(=O)(=O)c3cccs3)c2O[C@H]1CN(C)Cc1ccc(Cl)c(Cl)c1`
F

Another molecule to look at: `Cc1noc(C)c1NC(=O)N(C)C[C@H]1Oc2ncc(C#CCC(C)C)cc2C(=O)N([C@@H](C)CO)C[C@@H]1C`
F

Another molecule to look at: `C[C@@H]1CCCCO[C@@H](CN(C)C(=O)CCC(F)(F)F)[C@H](C)CN([C@H](C)CO)C(=O)c2cc(NS(=O)(=O)c3cccs3)ccc2O1`
F

Another molecule to look at: `O=C(C[C@H]1CC[C@@H]2[C@H](COC[C@H](O)CN2C(=O)Nc2cccc(F)c2)O1)NCc1ccccc1Cl`
F

Another molecule to look at: `O=C1NC(=O)/C(=C\c2ccccc2)N1`
F

Another molecule to look at: `CO[C@H]1CN(C)C(=O)c2ccc(NS(=O)(=O)c3cn(C)cn3)cc2OC[C@H](C)N(Cc2cccc(F)c2)C[C@H]1C`
F

Another molecule to look at: `C[C@@H]1CN([C@@H](C)CO)C(=O)c2cc(NC(=O)Nc3ccccc3)ccc2O[C@@H](C)CCCCO[C@@H]1CN(C)C(=O)Nc1cccc2ccccc12`
F

Another molecule to look at: `C[C@H]1CCCCO[C@H](CN(C)S(=O)(=O)c2ccc(Cl)cc2)[C@@H](C)CN([C@@H](C)CO)C(=O)c2cc(NC(=O)NC3CCCCC3)ccc2O1`
F

Another molecule to look at: `COCC#Cc1ccc2c(c1)O[C@H](CN(C)C(=O)C1CCCCC1)[C@@H](C)CN([C@@H](C)CO)S2(=O)=O`
F

Another molecule to look at: `C[C@H]1CCCCO[C@@H](CN(C)S(=O)(=O)c2ccc(Cl)cc2)[C@@H](C)CN([C@@H](C)CO)C(=O)c2cc(NC(=O)NC3CCCCC3)ccc2O1`
T

Another molecule to look at: `CCC=CCC1=C(C)CCC1=O`
F

Another molecule to look at: `CN1C(=O)c2cc(NS(=O)(=O)c3cccc(F)c3)ccc2OC[C@H]2O[C@@H](CC(=O)NCCN3CCCCC3)CC[C@H]21`
F

Another molecule to look at: `C[C@@H]1CCCCO[C@@H](CN(C)C(=O)Nc2ccc3c(c2)OCO3)[C@H](C)CN([C@H](C)CO)C(=O)c2cc(NC(=O)c3ccccc3)ccc2O1`
F

Another molecule to look at: `CO[C@@H]1CN(C)C(=O)c2ccc(NS(=O)(=O)c3cn(C)cn3)cc2OC[C@@H](C)N(CC2CC2)C[C@H]1C`
F

Another molecule to look at: `O=C(C[C@@H]1CC[C@@H]2[C@H](COC[C@@H](O)CN2S(=O)(=O)c2ccccc2)O1)NCCN1CCCC1`
F

Another molecule to look at: `CO[C@@H]1CN(C)C(=O)c2ccc(NC(=O)C3CC3)cc2OC[C@H](C)N(C(=O)Cc2ccccn2)C[C@@H]1C`
F
